Data credit: patent US6022495A

Assay: Photochromic response of polymer test squares on an optical bench
Type: physicochemical
Settings: first five (5) seconds of UV exposure, expressed per minute; 72° F. (22.2° C.)
Parameter: Sensitivity ΔOD/min

Known results for molecules:
[[record]]
molecule = "COc1ccc(C2(c3ccccc3)C=Cc3c(c4c5cc(OC)c(OC)cc5c(=O)oc4c4ccccc34)O2)cc1 (stereo not shown)"
observed_result = "0.31 ΔOD/min"

[[record]]
molecule = "COc1ccc(C2(c3ccc(OC)cc3)C=Cc3c(c4c5ccc(OC)cc5c(=O)oc4c4ccccc34)O2)cc1"
observed_result = "0.25 ΔOD/min"

[[record]]
molecule = "COc1ccc(C2(c3ccc(OC)cc3)C=Cc3c(c4ccccc4c4c3oc(=O)c3ccccc34)O2)cc1"
observed_result = "0.19 ΔOD/min"

[[record]]
molecule = "COc1ccc(C2(c3ccccc3)C=Cc3c4c(c5ccccc5c3O2)-c2cc(OC)c(OC)cc2C(C)(C)O4)cc1 (stereo not shown)"
observed_result = "0.08 ΔOD/min"

[[record]]
molecule = "COc1ccc(C2(c3ccc(N4CCOCC4)cc3)C=Cc3c(c4c5ccccc5c(=O)oc4c4ccccc34)O2)cc1 (stereo not shown)"
observed_result = "0.04 ΔOD/min"

[[record]]
molecule = "O=c1oc2c3ccc4c(c3ccc2c2ccccc12)C=CC(c1ccccc1)(c1ccccc1)O4"
observed_result = "0.12 ΔOD/min"


response.value for COc1ccc(C2(c3ccc(OC)cc3)C=Cc3c(c4c5cc(OC)c(OC)cc5c(=O)oc4c4ccccc34)O2)cc1 (field: Sensitivity ΔOD/min) = 0.19 ΔOD/min

response.value for COc1ccc(C2(c3ccc(N4CCOCC4)cc3)C=Cc3c(c4ccccc4c4c3oc(=O)c3ccccc34)O2)cc1 (stereo not shown) (field: Sensitivity ΔOD/min) = 0.13 ΔOD/min

response.value for O=c1oc2c3ccccc3c3c(c2c2ccccc12)OC(c1ccccc1)(c1ccc(N2CCOCC2)cc1)C=C3 (stereo not shown) (field: Sensitivity ΔOD/min) = 0.21 ΔOD/min

response.value for COc1ccc(C2(c3ccc(OC)cc3)C=Cc3c(c4c5ccccc5c(=O)oc4c4ccccc34)O2)cc1 (field: Sensitivity ΔOD/min) = 0.29 ΔOD/min

response.value for COc1ccc(C2(c3ccc(OC)cc3)C=Cc3c(c4ccccc4c4c3oc(=O)c3cc(OC)c(OC)cc34)O2)cc1 (field: Sensitivity ΔOD/min) = 0.22 ΔOD/min

response.value for COc1ccc(C2(c3ccccc3)C=Cc3c(c4ccccc4c4c3oc(=O)c3cc(OC)c(OC)cc34)O2)cc1 (stereo not shown) (field: Sensitivity ΔOD/min) = 0.27 ΔOD/min

response.value for O=c1oc2ccccc2c2c1c1c(c3ccccc32)OC(c2ccccc2)(c2ccccc2)C=C1 (field: Sensitivity ΔOD/min) = 0.69 ΔOD/min

====

Property: ΔOD @ Saturation; scope: individual molecules
Assay: Photochromic response of polymer test squares on an optical bench
Format: physicochemical
Conditions: UV exposure continued for 15 minutes; 72° F. (22.2° C.)
// keep it numeric: no unit symbol after the value

Known results for molecules:
[[record]]
molecule = "COc1ccc(C2(c3ccccc3)C=Cc3c(c4c5cc(OC)c(OC)cc5c(=O)oc4c4ccccc34)O2)cc1 (stereo not shown)"
parameter = "ΔOD @ Saturation"
observed_result = 0.29

[[record]]
molecule = "O=c1oc2c3ccccc3c3c(c2c2ccccc12)OC(c1ccccc1)(c1ccc(N2CCOCC2)cc1)C=C3 (stereo not shown)"
parameter = "ΔOD @ Saturation"
observed_result = 0.12

[[record]]
molecule = "O=c1oc2ccccc2c2c1c1c(c3ccccc32)OC(c2ccccc2)(c2ccccc2)C=C1"
parameter = "ΔOD @ Saturation"
observed_result = 0.26

[[record]]
molecule = "COc1ccc(C2(c3ccc(OC)cc3)C=Cc3c(c4c5ccc(OC)cc5c(=O)oc4c4ccccc34)O2)cc1"
parameter = "ΔOD @ Saturation"
observed_result = 0.12


response.value for COc1ccc(C2(c3ccc(N4CCOCC4)cc3)C=Cc3c(c4c5ccccc5c(=O)oc4c4ccccc34)O2)cc1 (stereo not shown) (field: ΔOD @ Saturation) = 0.01

response.value for COc1ccc(C2(c3ccc(N4CCOCC4)cc3)C=Cc3c(c4ccccc4c4c3oc(=O)c3ccccc34)O2)cc1 (stereo not shown) (field: ΔOD @ Saturation) = 0.06

response.value for COc1ccc(C2(c3ccc(OC)cc3)C=Cc3c(c4ccccc4c4c3oc(=O)c3cc(OC)c(OC)cc34)O2)cc1 (field: ΔOD @ Saturation) = 0.10

====

Assay: Photochromic response of polymer test squares on an optical bench
Type: physicochemical
Details: time for absorbance of activated form to reach one half the highest absorbance at room temperature (72° F.) after removal of activating light
Mark Criterion met for reported Bleach Rate T 1/2 of 30 s or greater; mark Criterion not met for anything smaller.

Examples with answers:
[[record]]
molecule = "COc1ccc(C2(c3ccc(OC)cc3)C=Cc3c(c4ccccc4c4c3oc(=O)c3cc(OC)c(OC)cc34)O2)cc1"
label_class = "Criterion met"

[[record]]
molecule = "COc1ccc(C2(c3ccc(OC)cc3)C=Cc3c(c4c5ccc(OC)cc5c(=O)oc4c4ccccc34)O2)cc1"
label_class = "Criterion not met"


Asked: Test whether the molecule COc1ccc(C2(c3ccc(OC)cc3)C=Cc3c(c4c5cc(OC)c(OC)cc5c(=O)oc4c4ccccc34)O2)cc1 records Bleach Rate T 1/2 of 30 s or higher.
Given back: Criterion not met

Asked: Test whether the molecule COc1ccc(C2(c3ccc(OC)cc3)C=Cc3c(c4c5ccccc5c(=O)oc4c4ccccc34)O2)cc1 records Bleach Rate T 1/2 of 30 s or higher.
Given back: Criterion not met

Asked: Test whether the molecule COc1ccc(C2(c3ccccc3)C=Cc3c4c(c5ccccc5c3O2)-c2cc(OC)c(OC)cc2C(C)(C)O4)cc1 (centres unmarked) records Bleach Rate T 1/2 of 30 s or higher.
Given back: Criterion met

====

Property: Bleach Rate T 1/2; scope: individual molecules
Assay: Photochromic response of polymer test squares on an optical bench
Type: physicochemical
Conditions: time for absorbance of activated form to reach one half the highest absorbance at room temperature (72° F.) after removal of activating light
Express the result in s but write the number alone.

Known results for molecules:
[[record]]
molecule = "O=c1oc2c3ccccc3c3c(c2c2ccccc12)OC(c1ccccc1)(c1ccc(N2CCOCC2)cc1)C=C3 (stereo not shown) [Compound 5A]"
units_symbol = "s"
observed_result = 37

[[record]]
molecule = "COc1ccc(C2(c3ccccc3)C=Cc3c(c4c5cc(OC)c(OC)cc5c(=O)oc4c4ccccc34)O2)cc1 (stereo not shown) [Compound 7B]"
units_symbol = "s"
observed_result = 47

[[record]]
molecule = "COc1ccc(C2(c3ccc(OC)cc3)C=Cc3c(c4ccccc4c4c3oc(=O)c3ccccc34)O2)cc1 [Compound 1B]"
units_symbol = "s"
observed_result = 24

[[record]]
molecule = "COc1ccc(C2(c3ccc(N4CCOCC4)cc3)C=Cc3c(c4c5ccccc5c(=O)oc4c4ccccc34)O2)cc1 (stereo not shown) [Compound 3A]"
units_symbol = "s"
observed_result = 3

[[record]]
molecule = "COc1ccc(C2(c3ccccc3)C=Cc3c(c4ccccc4c4c3oc(=O)c3cc(OC)c(OC)cc34)O2)cc1 (stereo not shown) [Compound 7A]"
units_symbol = "s"
observed_result = 54


response.value for COc1ccc(C2(c3ccc(N4CCOCC4)cc3)C=Cc3c(c4ccccc4c4c3oc(=O)c3ccccc34)O2)cc1 (stereo not shown) [Compound 3B] (field: Bleach Rate T 1/2) = 39

response.value for O=c1oc2ccccc2c2c1c1c(c3ccccc32)OC(c2ccccc2)(c2ccccc2)C=C1 [Compound 10] (field: Bleach Rate T 1/2) = 19

====

Assay: Visible lambda max of the activated form in polymer test squares (Varian Cary 3 UV-Visible spectrophotometer)
Type: physicochemical
Settings: activated (colored) form in test square of BPA 2EO DMA / poly(ethylene glycol) 600 dimethacrylate, 1.5×10^-3 molal
Parameter: lambda max (Vis) (nanometers)
Express the result in nanometers but write the number alone.

Known results for compounds:
[[record]]
compound = "COc1ccc(C2(c3ccc(OC)cc3)C=Cc3c(c4ccccc4c4c3oc(=O)c3ccccc34)O2)cc1"
observed_result = 537

[[record]]
compound = "COc1ccc(C2(c3ccc(OC)cc3)C=Cc3c(c4c5ccccc5c(=O)oc4c4ccccc34)O2)cc1"
observed_result = 493

[[record]]
compound = "O=c1oc2c3ccc4c(c3ccc2c2ccccc12)C=CC(c1ccccc1)(c1ccccc1)O4"
observed_result = 466


response.value for COc1ccc(C2(c3ccc(OC)cc3)C=Cc3c(c4ccccc4c4c3oc(=O)c3cc(OC)c(OC)cc34)O2)cc1 (field: lambda max (Vis)) = 569

response.value for COc1ccc(C2(c3ccc(N4CCOCC4)cc3)C=Cc3c(c4c5ccccc5c(=O)oc4c4ccccc34)O2)cc1 (stereo not drawn) (field: lambda max (Vis)) = 530

response.value for O=c1oc2c3ccccc3c3c(c2c2ccccc12)OC(c1ccccc1)(c1ccc(N2CCOCC2)cc1)C=C3 (stereo not drawn) (field: lambda max (Vis)) = 570

====

Test: Photochromic response of polymer test squares on an optical bench
Format: physicochemical
Settings: UV exposure continued for 15 minutes; 72° F. (22.2° C.)
Parameter: ΔOD @ Saturation
// keep it numeric: no unit symbol after the value

Known results for compounds:
[[record]]
compound = "COc1ccc(C2(c3ccccc3)C=Cc3c4c(c5ccccc5c3O2)-c2cc(OC)c(OC)cc2C(C)(C)O4)cc1 (stereo not drawn)"
observed_result = 0.21

[[record]]
compound = "O=c1oc2c3ccc4c(c3ccc2c2ccccc12)C=CC(c1ccccc1)(c1ccccc1)O4"
observed_result = 0.02

[[record]]
compound = "COc1ccc(C2(c3ccccc3)C=Cc3c(c4ccccc4c4c3oc(=O)c3cc(OC)c(OC)cc34)O2)cc1 (stereo not drawn)"
observed_result = 0.22

[[record]]
compound = "COc1ccc(C2(c3ccc(OC)cc3)C=Cc3c(c4ccccc4c4c3oc(=O)c3ccccc34)O2)cc1"
observed_result = 0.07

[[record]]
compound = "COc1ccc(C2(c3ccc(OC)cc3)C=Cc3c(c4c5cc(OC)c(OC)cc5c(=O)oc4c4ccccc34)O2)cc1"
observed_result = 0.13


Please look at the following compound next.
response.value for COc1ccc(C2(c3ccc(OC)cc3)C=Cc3c(c4c5ccccc5c(=O)oc4c4ccccc34)O2)cc1 (field: ΔOD @ Saturation) = 0.14
